Reference source: patent US20210278408A1

tested on: 407 cancer cell lines; experiment: Cell viability of cancer cell lines (IC50), CellTiter-Glo Viability Assay, 96 h; type: cell-based; details: Homo sapiens, NCI-H1666, 96 h, NCI-H1666 cells, 96 h; read-out: Absolute IC50
pIC50: −log10 of the molar value.
assay-metric: pIC50

> print(dat)
                               entry.smiles  data.value
1  Cc1nn(-c2nc(-c3ccc(C(F)(F)F)cc3)c(SC(C)C)s2)c(C(=O)O)c1-c1cccc(F)c1      < 4.52

----------
system: 407 cancer cell lines; assay: Cell viability of cancer cell lines (IC50), CellTiter-Glo Viability Assay, 96 h; assay type: cell-based; conditions: Homo sapiens, HEL 92.1.7, HEL 92.1.7; read-out: Absolute IC50
pIC50: −log10 of the molar value.
assay-metric: pIC50

> print(dat)
                               entry.smiles  assay.metric  data.value
1  Cc1nn(-c2nc(-c3ccc(C(F)(F)F)cc3)c(SC(C)C)s2)c(C(=O)O)c1-c1cccc(F)c1         pIC50        6.42
